The reported numbers originate from the supplement of paper PMC8617591.

# System: Mycobacterium tuberculosis Erdman (autoluminescent)
# Experiment Description: Einf, fitted maximum growth inhibition of three-drug combination (fraction); higher = stronger maximal inhibition
# Experimental Setup: in vitro model: intracellular J774; time point: constant = terminal
Each entry below carries its reported Einf.
Lab note: jot down the number only; don't add units.

Use these answered entries as a reference point.
1. CC[C@@H](CO)NCCN[C@@H](CC)CO [ethambutol] + CC(=O)NC[C@H]1CN(c2ccc(N3CCOCC3)c(F)c2)C(=O)O1 [linezolid] + CO[C@H]1/C=C/O[C@@]2(C)Oc3c(C)c(O)c4c(O)c(c(/C=N/N5CCN(C6CCCC6)CC5)c(O)c4c3C2=O)NC(=O)/C(C)=C\C=C\[C@H](C)[C@H](O)[C@@H](C)[C@@H](O)[C@@H](C)[C@H](OC(C)=O)[C@@H]1C [rifapentine]    0.962
2. CC(C)/N=c1\cc2n(-c3ccc(Cl)cc3)c3ccccc3nc-2cc1Nc1ccc(Cl)cc1 [clofazimine] + CC(=O)NC[C@H]1CN(c2ccc(N3CCOCC3)c(F)c2)C(=O)O1 [linezolid] + CO[C@H]1/C=C/O[C@@]2(C)Oc3c(C)c(O)c4c(O)c(c(/C=N/N5CCN(C6CCCC6)CC5)c(O)c4c3C2=O)NC(=O)/C(C)=C\C=C\[C@H](C)[C@H](O)[C@@H](C)[C@@H](O)[C@@H](C)[C@H](OC(C)=O)[C@@H]1C [rifapentine]    0.926
3. CC(C)/N=c1\cc2n(-c3ccc(Cl)cc3)c3ccccc3nc-2cc1Nc1ccc(Cl)cc1 [clofazimine] + CC(=O)NC[C@H]1CN(c2ccc(N3CCOCC3)c(F)c2)C(=O)O1 [linezolid] + COc1c(N2C[C@@H]3CCCN[C@@H]3C2)c(F)cc2c(=O)c(C(=O)O)cn(C3CC3)c12 [moxifloxacin]    0.859

Form: compound = CC(C)/N=c1\cc2n(-c3ccc(Cl)cc3)c3ccccc3nc-2cc1Nc1ccc(Cl)cc1 [clofazimine] + NC(=O)c1cnccn1 [pyrazinamide] + CO[C@H]1/C=C/O[C@@]2(C)Oc3c(C)c(O)c4c(O)c(c(/C=N/N5CCN(C)CC5)c(O)c4c3C2=O)NC(=O)/C(C)=C\C=C\[C@H](C)[C@H](O)[C@@H](C)[C@@H](O)[C@@H](C)[C@H](OC(C)=O)[C@@H]1C [rifampicin] ; Einf = 0.995

Data point: COc1nc2ccc(Br)cc2cc1[C@@H](c1ccccc1)[C@@](O)(CCN(C)C)c1cccc2ccccc12 [bedaquiline] + NC(=O)c1cnccn1 [pyrazinamide] + CO[C@H]1/C=C/O[C@@]2(C)Oc3c(C)c(O)c4c(O)c(c(/C=N/N5CCN(C6CCCC6)CC5)c(O)c4c3C2=O)NC(=O)/C(C)=C\C=C\[C@H](C)[C@H](O)[C@@H](C)[C@@H](O)[C@@H](C)[C@H](OC(C)=O)[C@@H]1C [rifapentine] ; Einf = 0.984

====

# System: Mycobacterium tuberculosis Erdman (autoluminescent)
# Experiment Description: GRinf, maximum normalised growth rate inhibition (unitless (-1 to 1)); higher = less effect (negative = killing)
# Experimental Setup: in vitro model: dormancy (butyrate + nitrate, low O2); time point: terminal (~4-5 doublings, model-specific)
Catalogue of GRinf values

Worked cases, answers included:
1. COc1nc2ccc(Br)cc2cc1[C@@H](c1ccccc1)[C@@](O)(CCN(C)C)c1cccc2ccccc12 [bedaquiline] + CC(C)/N=c1\cc2n(-c3ccc(Cl)cc3)c3ccccc3nc-2cc1Nc1ccc(Cl)cc1 [clofazimine]    -0.267
2. O=[N+]([O-])c1cn2c(n1)OC[C@@H](OCc1ccc(OC(F)(F)F)cc1)C2 [pretomanid] + NC(=O)c1cnccn1 [pyrazinamide]    -0.921
3. CC(C)/N=c1\cc2n(-c3ccc(Cl)cc3)c3ccccc3nc-2cc1Nc1ccc(Cl)cc1 [clofazimine] + CO[C@H]1/C=C/O[C@@]2(C)Oc3c(C)c(O)c4c(O)c(c(/C=N/N5CCN(C)CC5)c(O)c4c3C2=O)NC(=O)/C(C)=C\C=C\[C@H](C)[C@H](O)[C@@H](C)[C@@H](O)[C@@H](C)[C@H](OC(C)=O)[C@@H]1C [rifampicin]    -0.059

Turning now to a further record.
Entry NNC(=O)c1ccncc1 [isoniazid] + O=[N+]([O-])c1cn2c(n1)OC[C@@H](OCc1ccc(OC(F)(F)F)cc1)C2 [pretomanid] — recorded GRinf = -0.198

====

# System: Mycobacterium tuberculosis Erdman (autoluminescent)
# Experiment Description: total FIC90 (Loewe) at 90% inhibition, three-drug combination (log2); higher = more antagonistic
# Experimental Setup: in vitro model: butyrate; time point: terminal (~4-5 doublings, model-specific)
Outcome Measure: total FIC90
Respond using a number only.

Use these answered entries as a reference point.
1) NNC(=O)c1ccncc1 [isoniazid] + COc1c(N2C[C@@H]3CCCN[C@@H]3C2)c(F)cc2c(=O)c(C(=O)O)cn(C3CC3)c12 [moxifloxacin] + NC(=O)c1cnccn1 [pyrazinamide]    -1.72
2) COc1nc2ccc(Br)cc2cc1[C@@H](c1ccccc1)[C@@](O)(CCN(C)C)c1cccc2ccccc12 [bedaquiline] + O=[N+]([O-])c1cn2c(n1)OC[C@@H](OCc1ccc(OC(F)(F)F)cc1)C2 [pretomanid] + CO[C@H]1/C=C/O[C@@]2(C)Oc3c(C)c(O)c4c(O)c(c(/C=N/N5CCN(C)CC5)c(O)c4c3C2=O)NC(=O)/C(C)=C\C=C\[C@H](C)[C@H](O)[C@@H](C)[C@@H](O)[C@@H](C)[C@H](OC(C)=O)[C@@H]1C [rifampicin]    0.69
3) CC[C@@H](CO)NCCN[C@@H](CC)CO [ethambutol] + O=[N+]([O-])c1cn2c(n1)OC[C@@H](OCc1ccc(OC(F)(F)F)cc1)C2 [pretomanid] + CO[C@H]1/C=C/O[C@@]2(C)Oc3c(C)c(O)c4c(O)c(c(/C=N/N5CCN(C6CCCC6)CC5)c(O)c4c3C2=O)NC(=O)/C(C)=C\C=C\[C@H](C)[C@H](O)[C@@H](C)[C@@H](O)[C@@H](C)[C@H](OC(C)=O)[C@@H]1C [rifapentine]    -0.372
4) NNC(=O)c1ccncc1 [isoniazid] + NC(=O)c1cnccn1 [pyrazinamide] + CO[C@H]1/C=C/O[C@@]2(C)Oc3c(C)c(O)c4c(O)c(c(/C=N/N5CCN(C)CC5)c(O)c4c3C2=O)NC(=O)/C(C)=C\C=C\[C@H](C)[C@H](O)[C@@H](C)[C@@H](O)[C@@H](C)[C@H](OC(C)=O)[C@@H]1C [rifampicin]    -2.12
5) CC(C)/N=c1\cc2n(-c3ccc(Cl)cc3)c3ccccc3nc-2cc1Nc1ccc(Cl)cc1 [clofazimine] + NNC(=O)c1ccncc1 [isoniazid] + COc1c(N2C[C@@H]3CCCN[C@@H]3C2)c(F)cc2c(=O)c(C(=O)O)cn(C3CC3)c12 [moxifloxacin]    0.768

Now turn to the next compound.
For COc1nc2ccc(Br)cc2cc1[C@@H](c1ccccc1)[C@@](O)(CCN(C)C)c1cccc2ccccc12 [bedaquiline] + CC[C@@H](CO)NCCN[C@@H](CC)CO [ethambutol] + CC(=O)NC[C@H]1CN(c2ccc(N3CCOCC3)c(F)c2)C(=O)O1 [linezolid] the compound record lists total FIC90 as -0.223

====

# Test system: Mycobacterium tuberculosis Erdman (autoluminescent)
# Experiment Description: AUC25, normalised area under dose response up to IC25 (three-drug combination) (fraction (0-1)); higher = more potent at low dose
# Experimental Setup: in vitro model: valerate; time point: terminal (~4-5 doublings, model-specific)
AUC25 by entry:
Give the figure by itself; no unit, no explanation.

1) CC(C)/N=c1\cc2n(-c3ccc(Cl)cc3)c3ccccc3nc-2cc1Nc1ccc(Cl)cc1 [clofazimine] + NNC(=O)c1ccncc1 [isoniazid] + NC(=O)c1cnccn1 [pyrazinamide]    0.0674

# ---- query compound ----
For this compound ( CC(C)/N=c1\cc2n(-c3ccc(Cl)cc3)c3ccccc3nc-2cc1Nc1ccc(Cl)cc1 [clofazimine] + O=[N+]([O-])c1cn2c(n1)OC[C@@H](OCc1ccc(OC(F)(F)F)cc1)C2 [pretomanid] + NC(=O)c1cnccn1 [pyrazinamide] ), measured AUC25 is 0.0562

====

Collected Einf values appear next to each entry.
# Tested on: Mycobacterium tuberculosis Erdman (autoluminescent)
# Experiment Description: Einf, fitted maximum growth inhibition of three-drug combination (fraction); higher = stronger maximal inhibition
# Experimental Setup: in vitro model: butyrate; time point: terminal (~4-5 doublings, model-specific)
Give a plain numeric answer without units written out.

Worked set:
1. O=[N+]([O-])c1cn2c(n1)OC[C@@H](OCc1ccc(OC(F)(F)F)cc1)C2 [pretomanid] + NC(=O)c1cnccn1 [pyrazinamide] + CO[C@H]1/C=C/O[C@@]2(C)Oc3c(C)c(O)c4c(O)c(c(/C=N/N5CCN(C)CC5)c(O)c4c3C2=O)NC(=O)/C(C)=C\C=C\[C@H](C)[C@H](O)[C@@H](C)[C@@H](O)[C@@H](C)[C@H](OC(C)=O)[C@@H]1C    0.943
2. CC(C)/N=c1\cc2n(-c3ccc(Cl)cc3)c3ccccc3nc-2cc1Nc1ccc(Cl)cc1 [clofazimine] + NNC(=O)c1ccncc1 [isoniazid] + CO[C@H]1/C=C/O[C@@]2(C)Oc3c(C)c(O)c4c(O)c(c(/C=N/N5CCN(C)CC5)c(O)c4c3C2=O)NC(=O)/C(C)=C\C=C\[C@H](C)[C@H](O)[C@@H](C)[C@@H](O)[C@@H](C)[C@H](OC(C)=O)[C@@H]1C [rifampicin]    0.978

The compound COc1nc2ccc(Br)cc2cc1[C@@H](c1ccccc1)[C@@](O)(CCN(C)C)c1cccc2ccccc12 [bedaquiline] + CC[C@@H](CO)NCCN[C@@H](CC)CO [ethambutol] + CO[C@H]1/C=C/O[C@@]2(C)Oc3c(C)c(O)c4c(O)c(c(/C=N/N5CCN(C)CC5)c(O)c4c3C2=O)NC(=O)/C(C)=C\C=C\[C@H](C)[C@H](O)[C@@H](C)[C@@H](O)[C@@H](C)[C@H](OC(C)=O)[C@@H]1C [rifampicin] showed Einf equal to 0.977

Consider CC(=O)NC[C@H]1CN(c2ccc(N3CCOCC3)c(F)c2)C(=O)O1 [linezolid] + O=[N+]([O-])c1cn2c(n1)OC[C@@H](OCc1ccc(OC(F)(F)F)cc1)C2 [pretomanid] + CO[C@H]1/C=C/O[C@@]2(C)Oc3c(C)c(O)c4c(O)c(c(/C=N/N5CCN(C)CC5)c(O)c4c3C2=O)NC(=O)/C(C)=C\C=C\[C@H](C)[C@H](O)[C@@H](C)[C@@H](O)[C@@H](C)[C@H](OC(C)=O)[C@@H]1C [rifampicin] . Its measured Einf is 0.948

# Einf (compound: COc1c(N2C[C@@H]3CCCN[C@@H]3C2)c(F)cc2c(=O)c(C(=O)O)cn(C3CC3)c12 [moxifloxacin] + O=[N+]([O-])c1cn2c(n1)OC[C@@H](OCc1ccc(OC(F)(F)F)cc1)C2 [pretomanid] + CO[C@H]1/C=C/O[C@@]2(C)Oc3c(C)c(O)c4c(O)c(c(/C=N/N5CCN(C)CC5)c(O)c4c3C2=O)NC(=O)/C(C)=C\C=C\[C@H](C)[C@H](O)[C@@H](C)[C@@H](O)[C@@H](C)[C@H](OC(C)=O)[C@@H]1C [rifampicin] ) is 0.962
